Test system: COLO 205 colon
Assay: NCI tumour cell line growth inhibition, 48 h; in the data active = GI50 below about 0.43 µM; inactive = the rest
*1 amine or outer side, *2 acyl side, *3 side chain or, on linkers, in order; H or OH if unused. Where a SMILES comes first, the peptide text is derived from it. Bridges are numbered along the chain shown (N, C = ends). [ ]: non-standard residue; d: D form. The star is where a group is joined. Phe(3,5-F2) = N[C@@H](Cc1cc(F)cc(F)c1)C(=O)O; Pro(4R-Me) = C[C@H]1CN[C@H](C(=O)O)C1; aThr = C[C@H](O)[C@H](N)C(=O)O; Pip = O=C(O)[C@@H]1CCCCN1; X10 = Fc1cc(C2CC2)ccc1N*; Abu = CC[C@H](N)C(=O)O; CO = O=C([*:1])[*:2]
Labels: true for active, false for inactive

| COMPOUND | CLASS |
| --- | --- |
| CC(=O)OC1CCC(OC(C)=O)[C@H]2[C@@H]1[C@@H]1S[C@H]2c2ccccc21 (stereo partly specified) | false |
| Oc1ccc(CCl)c2cccnc12 | false |
| CCN(CC)c1ccc2c(cc1=O)[C@@H](NC(C)=O)CCc1cc(OC)c(OC)c(OC)c1-2 | true |
| COc1ccc(C(O)c2cc3c(N)c(C(=O)Nc4cccc(OC)c4)sc3nc2C)cc1 (stereo unspecified) | false |
| Fc1ccc(-c2nnc3sc(-c4cc(Cl)cc(Cl)c4)nn23)cc1Cl | false |
| COc1cc2c(cc1OCCCCCN1CCN(c3cc(=O)oc4ccccc34)CC1)N=C[C@@H]1CCCN1C2=O | true |
| Nc1c(C(=O)Nc2ccccn2)sc2nc3c(cc12)CCCCC3 | false |
| CC(=O)OC1Oc2ccc(C)cc2-c2oc(=O)c(-c3cc4ccccc4oc3=O)cc21 (stereo unspecified) | false |
| COc1ccc2c(c1OC)CO[C@@H]2[C@H]1c2c(c(Br)c3c(c2OC)OCO3)CCN1C | false |
| Cc1cc(Nc2ncc(F)c(N[C@H]3[C@@H](C(N)=O)[C@@H]4C=C[C@H]3C4)n2)ccc1N1CCN(C)CC1 | true |
| CC[C@@H]1NC(=O)[C@@H]2CCCCN2C(=O)[C@@H]2CCCN2C(=O)[C@@H](NC(=O)[C@H](Cc2cc(F)cc(F)c2)NC(=O)Nc2ccc(C3CC3)cc2F)[C@H](C)OC(=O)[C@@H]2C[C@@H](C)CN2C1=O ({X10-CO}-[Phe(3,5-F2)][aThr]P[Pip][Abu][Pro(4R-Me)]; ester 2-C) | true |
| CC/C=C\C/C=C\C[C@H]1C/C=C2/C(=O)C=C[C@@H]2C/C=C\CCC(=O)O1 | false |
| COc1cc(NC(=O)c2ccc(C(F)(F)F)nc2Nc2cc(Cl)ccc2C)cc(OC)c1OC | false |
| ClC1=C(Cl)C(Cl)=C(Cl)C1=Cc1ccccc1 | false |
| [N-]=[N+]=NCCCn1c2c(c3ccccc3c1=O)C(=O)c1cc(Br)ccc1-2 | false |
| CCC[CH2][Sn]([CH2]CCC)([O]C(=O)c1ccc(C)c(N)c1)[O]C(=O)c1ccc(C)c(N)c1 | true |
